The entries below are paired with their reported Post-emergence action against VERPE in %.
- Test system: VERPE
- assay info: Post-emergence herbicidal action against VERPE
- Type: in vivo, Veronica persica
- measurement context: 5 g/ha
measured attribute: Post-emergence action against VERPE in % (%)

>>> endpoint_value("Cn1nnnc1NC(=O)c1ccc(C(F)(F)F)c(C(=O)NCC2CC2)c1C1CC1")
80
>>> endpoint_value("CCn1nnnc1NC(=O)c1ccc(C(F)(F)F)c(C(=O)NC)c1C1CC1")
80
>>> endpoint_value("CCc1c(C(=O)Nc2nnnn2C)ccc(C(F)(F)F)c1C(=O)NC(C)C1CC1 (stereo not drawn)")
80
>>> endpoint_value("CCc1c(C(=O)Nc2nnnn2CC)ccc(C(F)F)c1C(=O)NC")
80
>>> endpoint_value("Cn1nnnc1NC(=O)c1ccc(C(F)(F)F)c(C(=O)NCC2CC2)c1Cl")
90
>>> endpoint_value("CC(NC(=O)c1c(C(F)(F)F)ccc(C(=O)Nc2nnnn2C)c1C1CC1)C1CC1 (stereo not drawn)")
80
